tested on: NCI-H1355; assay: relative viability (nuclei count vs DMSO), 5 days (fraction); higher = more cells survive; settings: first compound 0.03162 µM
observable: relative viability
Form field (numeric): enter value without unit.

Would you please look over these solved cases?
Form: compound = CCN(CC)CCCCNc1ncc2cc(-c3cc(OC)cc(OC)c3)c(NC(=O)NC(C)(C)C)nc2n1 + C[C@@H](Oc1cc(-c2cnn(C3CCNCC3)c2)cnc1N)c1c(Cl)ccc(F)c1Cl [Crizotinib] (partner 1 µM) ; relative viability = 1.16

Form: compound = CCN(CC)CCCCNc1ncc2cc(-c3cc(OC)cc(OC)c3)c(NC(=O)NC(C)(C)C)nc2n1 + CC1(C)CCC(c2ccc(Cl)cc2)=C(CN2CCN(c3ccc(C(=O)NS(=O)(=O)c4ccc(N[C@H](CCN5CCOCC5)CSc5ccccc5)c(S(=O)(=O)C(F)(F)F)c4)cc3)CC2)C1 [Navitoclax] (partner 0.5 µM) ; relative viability = 1.09

Form: compound = O=c1cc(N2CCOCC2)oc2c(-c3cccc4c3sc3ccccc34)cccc12 + C[C@]1(O)C[C@@H](c2nc(-c3ccc4ccc(-c5ccccc5)nc4c3)c3c(N)nccn32)C1 [Linsitinib] (partner 1 µM) ; relative viability = 0.895

Form: compound = O=c1cc(N2CCOCC2)oc2c(-c3cccc4c3sc3ccccc34)cccc12 + CC(=O)c1c(C)c2cnc(Nc3ccc(N4CCNCC4)cn3)nc2n(C2CCCC2)c1=O [Palbociclib] (partner 0.5 µM) ; relative viability = 0.403

More entries:
Form: compound = O=c1cc(N2CCOCC2)oc2c(-c3cccc4c3sc3ccccc34)cccc12 + CC1(C)CCC(c2ccc(Cl)cc2)=C(CN2CCN(c3ccc(C(=O)NS(=O)(=O)c4ccc(N[C@H](CCN5CCOCC5)CSc5ccccc5)c(S(=O)(=O)C(F)(F)F)c4)cc3)CC2)C1 [Navitoclax] (partner 0.5 µM) ; relative viability = 0.981

----------
test system: COR-L23; assay: relative viability (nuclei count vs DMSO), 5 days (fraction); higher = more cells survive; conditions: first compound 0.6325 µM
observable: relative viability

Would you please look over these solved cases?
Record COCC1(CO)C(=O)C2CCN1CC2 (stereo unspecified) [PRIMA-1MET] + O=C(c1cc(Cc2n[nH]c(=O)c3ccccc23)ccc1F)N1CCN(C(=O)C2CC2)CC1 [Olaparib] (partner 8 µM) has COR-L23 relative viability equal to 0.315

Record COCC1(CO)C(=O)C2CCN1CC2 (stereo unspecified) [PRIMA-1MET] + CC1(C)CCC(c2ccc(Cl)cc2)=C(CN2CCN(c3ccc(C(=O)NS(=O)(=O)c4ccc(N[C@H](CCN5CCOCC5)CSc5ccccc5)c(S(=O)(=O)C(F)(F)F)c4)cc3)CC2)C1 [Navitoclax] (partner 0.5 µM) has COR-L23 relative viability equal to 0.93

Record COCC1(CO)C(=O)C2CCN1CC2 (stereo unspecified) [PRIMA-1MET] + COc1cccc2cc(-c3nc([C@H]4CC[C@H](C(=O)O)CC4)n4ncnc(N)c34)[nH]c12 [OSI-027] (partner 0.5 µM) has COR-L23 relative viability equal to 0.679

Record COCC1(CO)C(=O)C2CCN1CC2 (stereo unspecified) [PRIMA-1MET] + CS(=O)(=O)N1CCN(Cc2cc3nc(-c4cccc5[nH]ncc45)nc(N4CCOCC4)c3s2)CC1 [Pictilisib] (partner 1 µM) has COR-L23 relative viability equal to 0.76

Record COCC1(CO)C(=O)C2CCN1CC2 (stereo unspecified) [PRIMA-1MET] + CC(=O)c1c(C)c2cnc(Nc3ccc(N4CCNCC4)cn3)nc2n(C2CCCC2)c1=O [Palbociclib] (partner 0.5 µM) has COR-L23 relative viability equal to 0.191

Now for the compound whose relative viability we want.
Record COCC1(CO)C(=O)C2CCN1CC2 (stereo unspecified) [PRIMA-1MET] + COc1cc2c(Oc3ccc(NC(=O)C4(C(=O)Nc5ccc(F)cc5)CC4)cc3F)ccnc2cc1OCCCN1CCOCC1 [Foretinib] (partner 0.25 µM) has COR-L23 relative viability equal to 0.956

----------
test system: NCI-H1975; assay: relative viability (nuclei count vs DMSO), 5 days (fraction); higher = more cells survive; details: first compound 0.08 µM
For each record, check the reported relative viability: if it is below 0.7 write Y, else write N.

API: query returns whether the molecule falls strictly under 0.7 in relative viability. Query: COc1nc(C)cnc1NS(=O)(=O)c1cccnc1-c1ccc(-c2nnco2)cc1 [Zibotentan] + Cc1cc(Nc2cc(N3CCN(C)CC3)nc(Sc3ccc(NC(=O)C4CC4)cc3)n2)n[nH]1 [Tozasertib] (partner 0.1 µM)
N

API: query returns whether the molecule falls strictly under 0.7 in relative viability. Query: O=c1cc(-c2cccc3c2Sc2ccccc2S3)oc(N2CCOCC2)c1 + CCNC(=O)c1noc(-c2cc(C(C)C)c(O)cc2O)c1-c1ccc(CN2CCOCC2)cc1 [Luminespib] (partner 0.01 µM)
Y

API: query returns whether the molecule falls strictly under 0.7 in relative viability. Query: COc1nc(C)cnc1NS(=O)(=O)c1cccnc1-c1ccc(-c2nnco2)cc1 [Zibotentan] + O=C(CCCCCCC(=O)Nc1ccccc1)NO [Vorinostat] (partner 1 µM)
N

API: query returns whether the molecule falls strictly under 0.7 in relative viability. Query: O=c1cc(-c2cccc3c2Sc2ccccc2S3)oc(N2CCOCC2)c1 + COc1cccc2cc(-c3nc([C@H]4CC[C@H](C(=O)O)CC4)n4ncnc(N)c34)[nH]c12 [OSI-027] (partner 0.5 µM)
N

API: query returns whether the molecule falls strictly under 0.7 in relative viability. Query: COc1nc(C)cnc1NS(=O)(=O)c1cccnc1-c1ccc(-c2nnco2)cc1 [Zibotentan] + C[C@@H](Oc1cc(-c2cnn(C3CCNCC3)c2)cnc1N)c1c(Cl)ccc(F)c1Cl [Crizotinib] (partner 1 µM)
N

----------
test system: LCLC-103H; assay: relative viability (nuclei count vs DMSO), 5 days (fraction); higher = more cells survive; details: first compound 0.253 µM
For each record, check the reported relative viability: if it is below 0.5 write t, else write f.

API: query returns whether the compound falls strictly under 0.5 in relative viability. Query: COc1nc(C)cnc1NS(=O)(=O)c1cccnc1-c1ccc(-c2nnco2)cc1 [Zibotentan] + Cc1nc(Nc2ncc(C(=O)Nc3c(C)cccc3Cl)s2)cc(N2CCN(CCO)CC2)n1 [Dasatinib] (partner 0.075 µM)
f

API: query returns whether the compound falls strictly under 0.5 in relative viability. Query: COc1nc(C)cnc1NS(=O)(=O)c1cccnc1-c1ccc(-c2nnco2)cc1 [Zibotentan] + COc1cc2c(Oc3ccc(NC(=O)C4(C(=O)Nc5ccc(F)cc5)CC4)cc3F)ccnc2cc1OCCCN1CCOCC1 [Foretinib] (partner 0.25 µM)
f

Attention now turns to another entry.
API: query returns whether the compound falls strictly under 0.5 in relative viability. Query: COc1nc(C)cnc1NS(=O)(=O)c1cccnc1-c1ccc(-c2nnco2)cc1 [Zibotentan] + O=C(c1cc(Cc2n[nH]c(=O)c3ccccc23)ccc1F)N1CCN(C(=O)C2CC2)CC1 [Olaparib] (partner 8 µM)
f

----------
Catalogue of relative viability values
tested on: H3255; assay: relative viability (nuclei count vs DMSO), 5 days (fraction); higher = more cells survive; settings: first compound 0.8 µM
Form field (numeric): enter value without unit.

Form: molecule = COc1nc(C)cnc1NS(=O)(=O)c1cccnc1-c1ccc(-c2nnco2)cc1 [Zibotentan] + CS(=O)(=O)CCNCc1ccc(-c2ccc3ncnc(Nc4ccc(OCc5cccc(F)c5)c(Cl)c4)c3c2)o1 [Lapatinib] (partner 2 µM) ; relative viability = 0.281

Form: molecule = COc1nc(C)cnc1NS(=O)(=O)c1cccnc1-c1ccc(-c2nnco2)cc1 [Zibotentan] + Cc1nc(Nc2ncc(C(=O)Nc3c(C)cccc3Cl)s2)cc(N2CCN(CCO)CC2)n1 [Dasatinib] (partner 0.075 µM) ; relative viability = 0.632

More entries:
Form: molecule = O=c1cc(-c2cccc3c2Sc2ccccc2S3)oc(N2CCOCC2)c1 + COc1cccc2cc(-c3nc([C@H]4CC[C@H](C(=O)O)CC4)n4ncnc(N)c34)[nH]c12 [OSI-027] (partner 0.5 µM) ; relative viability = 0.541

----------
system: HCC-827; experiment: relative viability (nuclei count vs DMSO), 5 days (fraction); higher = more cells survive; details: first compound 6.325 µM
Catalogue of relative viability values

Would you please look over these solved cases?
Record COCC1(CO)C(=O)C2CCN1CC2 (stereo not given) [PRIMA-1MET] + CCNC(=O)c1noc(-c2cc(C(C)C)c(O)cc2O)c1-c1ccc(CN2CCOCC2)cc1 [Luminespib] (partner 0.01 µM) has HCC-827 relative viability equal to 0.477

Record COCC1(CO)C(=O)C2CCN1CC2 (stereo not given) [PRIMA-1MET] + Cc1cc(Nc2cc(N3CCN(C)CC3)nc(Sc3ccc(NC(=O)C4CC4)cc3)n2)n[nH]1 [Tozasertib] (partner 0.1 µM) has HCC-827 relative viability equal to 0.399

Record COCC1(CO)C(=O)C2CCN1CC2 (stereo not given) [PRIMA-1MET] + C[C@@H](Oc1cc(-c2cnn(C3CCNCC3)c2)cnc1N)c1c(Cl)ccc(F)c1Cl [Crizotinib] (partner 1 µM) has HCC-827 relative viability equal to 0.978

Record COCC1(CO)C(=O)C2CCN1CC2 (stereo not given) [PRIMA-1MET] + CC1(C)CCC(c2ccc(Cl)cc2)=C(CN2CCN(c3ccc(C(=O)NS(=O)(=O)c4ccc(N[C@H](CCN5CCOCC5)CSc5ccccc5)c(S(=O)(=O)C(F)(F)F)c4)cc3)CC2)C1 [Navitoclax] (partner 0.5 µM) has HCC-827 relative viability equal to 1

Now for the compound whose relative viability we want.
Record COCC1(CO)C(=O)C2CCN1CC2 (stereo not given) [PRIMA-1MET] + Nc1nc2[nH]cc(CCc3ccc(C(=O)N[C@@H](CCC(=O)O)C(=O)O)cc3)c2c(=O)[nH]1 [Pemetrexed] (partner 0.2 µM) has HCC-827 relative viability equal to 0.554
